// data source = paper PMC8500922

biological target: ternary SpNatC (Schizosaccharomyces pombe, UniProt O74311+Q9USY3); experiment: isothermal titration calorimetry
Sequence (O74311 whole entry): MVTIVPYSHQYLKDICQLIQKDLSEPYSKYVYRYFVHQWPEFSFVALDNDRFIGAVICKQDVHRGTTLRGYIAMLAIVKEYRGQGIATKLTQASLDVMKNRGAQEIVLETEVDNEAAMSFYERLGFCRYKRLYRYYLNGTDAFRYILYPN
Sequence (Q9USY3 31-708): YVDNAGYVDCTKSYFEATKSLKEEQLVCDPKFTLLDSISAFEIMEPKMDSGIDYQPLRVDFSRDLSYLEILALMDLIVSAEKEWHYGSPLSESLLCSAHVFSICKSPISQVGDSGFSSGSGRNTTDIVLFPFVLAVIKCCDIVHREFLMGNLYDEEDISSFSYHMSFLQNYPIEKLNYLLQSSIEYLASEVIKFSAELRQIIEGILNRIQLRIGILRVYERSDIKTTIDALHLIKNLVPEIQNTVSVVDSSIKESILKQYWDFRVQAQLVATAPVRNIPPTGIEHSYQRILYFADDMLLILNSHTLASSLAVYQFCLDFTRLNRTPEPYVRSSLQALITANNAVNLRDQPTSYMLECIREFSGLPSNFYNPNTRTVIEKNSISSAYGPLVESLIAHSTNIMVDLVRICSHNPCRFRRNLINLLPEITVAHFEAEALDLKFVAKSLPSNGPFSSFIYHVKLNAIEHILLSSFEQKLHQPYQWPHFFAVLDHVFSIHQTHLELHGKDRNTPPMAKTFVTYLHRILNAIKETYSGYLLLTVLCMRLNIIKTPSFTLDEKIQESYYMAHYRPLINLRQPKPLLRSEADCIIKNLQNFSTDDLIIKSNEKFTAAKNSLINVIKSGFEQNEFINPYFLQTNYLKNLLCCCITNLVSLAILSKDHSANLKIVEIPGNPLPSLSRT
Sequence (O43080 4-72 partner limits assumed): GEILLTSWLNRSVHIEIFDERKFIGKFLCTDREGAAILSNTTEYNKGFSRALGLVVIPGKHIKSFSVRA
observable: Kd

Name the recorded Kd for O=P(O)(O)O[C@H]1[C@H](OP(=O)(O)O)[C@@H](OP(=O)(O)O)[C@H](OP(=O)(O)O)[C@@H](OP(=O)(O)O)[C@H]1OP(=O)(O)O [IP6, inositol hexaphosphate] . ~225 nM
